Protocol notes: NCI Yeast Anticancer Drug Screen. Data for the wt2 strain (AID 169);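 further: 0% = growth of vehicle-treated yeast cultures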
Condition: S. cerevisiae wt2 strain growth inhibition; at 100.0 µM
About 79,000 compounds went through this panel and 15% of them were active in at least one assay; those are over-represented in the sample as a whole. The source made the active and inactive calls. No stated cut-off is given here; in the data, active means growth inhibition above about 70%; inactive means the rest.
Pick one and only one: yes (1) (active), no (0) (inactive)

Look over these answered cases.
N#[N+]c1c([O-])c2ccccc2c2ccccc12: yes (1)
C[n+]1c(-c2ccc(/C=N/NC(=O)c3ccc(C(=O)N/N=C/c4ccc(-c5cn6ccccc6[n+]5C)cc4)cc3)cc2)cn2ccccc21: yes (1)
CCC(C)(C)c1ccc(Oc2ccccc2)c(N)c1: yes (1)
CCCCCCCCCCCCOCCOCCOCC(N)=O: yes (1)
COC(=O)C(=O)CC(=O)c1cccc(OC)c1: yes (1)

*Q* How did this test come out for CCCCCCCSCC1C(=O)C23C(O)C1CCC2C12COC3(O)C(O)C1C(C)(C)CCC2O (centres undefined) ?
*A* yes (1)

*Q* How did this test come out for CC(C)(C)c1ccc2c(c1)C(=O)c1ccccc1C2=O ?
*A* no (0)

*Q* How did this test come out for CC(=O)/C(=C\c1ccc(Cl)c(Cl)c1)C(=O)C(C)CN(C)C (centres undefined) ?
*A* yes (1)

*Q* How did this test come out for O=S1(=O)CCC2=CC(C(F)(F)F)=CC(C(F)(F)F)=CN21 ?
*A* yes (1)

These measurements were taken from PubChem BioAssay (NCI).
